Provenance of the data: paper PMC9866191

Recorded inhibition at 10 µM values for a group of compounds are listed next.
System: OVCAR-5
method_notes: NCI-60 one-dose screen
Type: cell-based
condition: Homo sapiens; OVCAR-5, Ovarian Cancer panel; single dose 10^−5 M; read-out: Growth inhibition %
Description: The newly synthesized compounds were screened for their in vitro anticancer activity at the Developmental Therapeutic Program (DTP) of the National Cancer Institute (NCI). The screening involved a panel of 60 human tumor cell lines consisting of 9 tissue types to screen for potential anti-cancer agents. The primary screening of submitted compounds was performed by testing a single dose (10^−5 M) in the full NCI-60 panel. […]
Quick reminder: number only, in %, skip the unit.

# example entries with known answers
COc1ccc(CNc2c3ccccc3nc3ccccc23)c(OC)c1 [Compound 17, Acridin-9-yl-(2,4-dimethoxybenzyl)-amine] | 49.7
COc1ccccc1CNc1c2ccccc2nc2ccccc12 [Compound 5, Acridin-9-yl-(2-methoxybenzyl)-amine] | 50.2
Clc1ccc(CNc2c3ccccc3nc3ccccc23)cc1 [Compound 13, Acridin-9-yl-(4-chlorobenzyl)-amine] | 49.5

Proceed to the following item.
Supply recorded inhibition at 10 µM for Fc1ccccc1CNc1c2ccccc2nc2ccccc12 [Compound 8, Acridin-9-yl-(2-fluorobenzyl)-amine] here. 48.8

---

Test system: EKVX
method_notes: NCI-60 one-dose screen
Format: cell-based
condition: Homo sapiens, Non-small cell lung panel, single dose 10^−5 M, read-out: Growth inhibition %
test_readout: inhibition at 10 µM (%)
Number in %, nothing else.

COc1ccc(CNc2c3ccccc3nc3ccc(OC)cc23)cc1 | 75.8
Cc1ccccc1CNc1c2ccccc2nc2ccccc12 | 61.6
Cc1cccc(CNc2c3ccccc3nc3ccccc23)c1 | 55.5
c1ccc(CCNc2c3ccccc3nc3ccccc23)cc1 | 63.7
COc1ccc(CNc2c3ccccc3nc3ccccc23)cc1OC | 84.8
Fc1cccc(CNc2c3ccccc3nc3ccccc23)c1 | 68

Let me know recorded inhibition at 10 µM for `COc1ccccc1CNc1c2ccccc2nc2ccccc12` , thanks. 34.3

Report inhibition at 10 µM, nothing else, for this compound: `Clc1cccc(CNc2c3ccccc3nc3ccccc23)c1` 72.8

Look up inhibition at 10 µM of `Fc1ccc(CNc2c3ccccc3nc3ccccc23)c(F)c1` and report it. 54.5

Read the entry `COc1cccc(CNc2c3ccccc3nc3ccccc23)c1OC` and write its reported inhibition at 10 µM. 63.7

Provide measured inhibition at 10 µM value, entry: `COc1ccc(CNc2c3ccccc3nc3ccccc23)cc1` 50.3

Write down inhibition at 10 µM measured for item `COc1ccc2nc3ccccc3c(NCc3ccccc3)c2c1` 73.1

Using the record for `Cc1ccc(CNc2c3ccccc3nc3ccccc23)cc1` , state its measured inhibition at 10 µM. 62.1

---

Tested on: COLO 205
method_notes: NCI-60 one-dose screen
Type: cell-based
condition: Homo sapiens; COLO 205, Colon Cancer panel; single dose 10^−5 M; read-out: Growth inhibition %
Documented inhibition at 10 µM across a set of compounds
Numeric answer only, unit % assumed.

Examples with answers:
COc1ccc(CNc2c3ccccc3nc3ccccc23)cc1F [Compound 19] | 91.3
Fc1cccc(CNc2c3ccccc3nc3ccccc23)c1 [Compound 9, Acridin-9-yl-(3-fluorobenzyl)-amine] | 82.7
COc1ccc(CNc2c3ccccc3nc3ccccc23)cc1OC [Compound 18, Acridin-9-yl-(3,4-dimethoxybenzyl)-amine] | 94.7

State the measured inhibition at 10 µM (COLO 205) of Fc1ccccc1CNc1c2ccccc2nc2ccccc12 [Compound 8, Acridin-9-yl-(2-fluorobenzyl)-amine] 84.9

Answer with inhibition at 10 µM of Clc1cccc(CNc2c3ccccc3nc3ccccc23)c1 [Compound 12, Acridin-9-yl-(3-chlorobenzyl)-amine] measured for COLO 205. 99.5

Provide inhibition at 10 µM, tested on COLO 205, for Fc1ccc(CNc2c3ccccc3nc3ccccc23)cc1F [Compound 22, Acridin-9-yl-(3,4-difluorobenzyl)-amine] . 83.9

Provide the reported inhibition at 10 µM (system: COLO 205) for c1ccc(CCNc2c3ccccc3nc3ccccc23)cc1 [Compound 23, Acridin-9-yl-phenethyl-amine] 78.8
